Experiment: Probe fluorescence ratio response to linolenic acid relative to ADIFAB2
Type: binding
Conditions: response relative to ADIFAB2
Source text: In an alternate preferred embodiment, the protein is rI-FABP that has Ala substituted for Leu at position 72 (rI-FABP-L72A) with the resulting probe named ADIFAB2. […] ADIFAB2 also has an altered spectral response, making it especially useful for measurements of FFAu in blood samples (Apple et al, Clinical Proteomics, (2004) 1:41-44, U.S. patent application Ser. No. 10/670,958). […] The baseline value for this ratio, measured in the absence of analyte, is designated R0. […]

molecule	DR/DR LNA
34T, 72A (protein, listed as Rattus norvegicus, PEPTIDE (1)...(131) wild-type rat intestinal fatty acid binding protein) AFDGTWKVDRNENYEKFMEKMGINVVKRKLGAHTNLKLTITQEGNKFTVKESSNFRNIDVVFELGVDFAYSAADGTELTGTWTMEGNKLVGKFKRVDNGKELIAVREISGNELIQTYTYEGVEAKRIFKKE	0.67
115I3, 72A (protein, listed as Rattus norvegicus, PEPTIDE (1)...(131) wild-type rat intestinal fatty acid binding protein) AFDGTWKVDRNENYEKFMEKMGINVVKRKLGAHDNLKLTITQEGNKFTVKESSNFRNIDVVFELGVDFAYSAADGTELTGTWTMEGNKLVGKFKRVDNGKELIAVREISGNELIITYTYEGVEAKRIFKKE	0.80
102T, 72A (protein, listed as Rattus norvegicus, PEPTIDE (1)...(131) wild-type rat intestinal fatty acid binding protein) AFDGTWKVDRNENYEKFMEKMGINVVKRKLGAHDNLKLTITQEGNKFTVKESSNFRNIDVVFELGVDFAYSAADGTELTGTWTMEGNKLVGKFKRVDNGKETIAVREISGNELIQTYTYEGVEAKRIFKKE	0.24
